# Experimental target: Vascular endothelial growth factor receptor 2 (Homo sapiens, UniProt P35968)
# Sequence (P35968 whole entry): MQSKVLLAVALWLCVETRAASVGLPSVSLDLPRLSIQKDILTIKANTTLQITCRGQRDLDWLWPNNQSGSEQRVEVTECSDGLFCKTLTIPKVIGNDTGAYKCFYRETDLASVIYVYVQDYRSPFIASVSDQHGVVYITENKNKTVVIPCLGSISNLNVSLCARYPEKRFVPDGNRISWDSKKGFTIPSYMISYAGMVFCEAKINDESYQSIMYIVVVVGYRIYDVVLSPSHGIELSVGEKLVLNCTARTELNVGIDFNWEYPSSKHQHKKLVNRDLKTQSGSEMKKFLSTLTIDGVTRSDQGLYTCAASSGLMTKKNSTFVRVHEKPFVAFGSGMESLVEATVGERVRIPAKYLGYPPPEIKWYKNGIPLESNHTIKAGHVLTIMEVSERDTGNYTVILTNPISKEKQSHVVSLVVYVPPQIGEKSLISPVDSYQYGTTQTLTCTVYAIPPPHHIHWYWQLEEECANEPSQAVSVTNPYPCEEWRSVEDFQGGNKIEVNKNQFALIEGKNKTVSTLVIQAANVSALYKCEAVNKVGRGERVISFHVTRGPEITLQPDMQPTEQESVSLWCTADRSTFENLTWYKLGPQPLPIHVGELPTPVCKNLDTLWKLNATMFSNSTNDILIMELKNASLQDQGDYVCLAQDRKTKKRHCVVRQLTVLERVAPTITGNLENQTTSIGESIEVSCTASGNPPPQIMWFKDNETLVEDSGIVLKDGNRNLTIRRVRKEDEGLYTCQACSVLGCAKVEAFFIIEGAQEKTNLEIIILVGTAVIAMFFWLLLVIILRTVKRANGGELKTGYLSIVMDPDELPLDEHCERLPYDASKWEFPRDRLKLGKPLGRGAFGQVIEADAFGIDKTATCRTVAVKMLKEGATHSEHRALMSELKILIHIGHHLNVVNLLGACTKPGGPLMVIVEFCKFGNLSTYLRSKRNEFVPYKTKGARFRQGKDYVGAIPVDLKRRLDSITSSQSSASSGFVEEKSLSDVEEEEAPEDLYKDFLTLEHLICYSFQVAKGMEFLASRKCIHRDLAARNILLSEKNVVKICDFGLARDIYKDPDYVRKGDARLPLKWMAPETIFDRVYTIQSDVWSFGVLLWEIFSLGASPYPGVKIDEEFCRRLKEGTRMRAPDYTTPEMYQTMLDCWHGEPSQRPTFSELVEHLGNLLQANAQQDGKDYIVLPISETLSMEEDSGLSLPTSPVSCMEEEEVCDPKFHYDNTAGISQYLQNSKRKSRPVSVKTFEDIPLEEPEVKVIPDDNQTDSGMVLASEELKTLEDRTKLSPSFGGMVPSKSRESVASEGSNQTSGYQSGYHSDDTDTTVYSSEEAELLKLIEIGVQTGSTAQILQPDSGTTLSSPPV
Readout: IC50
A complete answer gives the number followed by the unit.

Form: Entry = `COc1ccc(CN2C3CC2CN(c2ccc(-c4nc(-c5cnn(C)c5)cc5ncccc45)cn2)C3)cc1C#N` | System = Vascular endothelial growth factor receptor 2 (Homo sapiens, UniProt P35968) | IC50 = ____
27.3 nM

---

# Experimental target: Proto-oncogene tyrosine-protein kinase receptor Ret (Homo sapiens, UniProt P07949, G810S)
# Sequence (P07949 29-1114 G810S limits assumed): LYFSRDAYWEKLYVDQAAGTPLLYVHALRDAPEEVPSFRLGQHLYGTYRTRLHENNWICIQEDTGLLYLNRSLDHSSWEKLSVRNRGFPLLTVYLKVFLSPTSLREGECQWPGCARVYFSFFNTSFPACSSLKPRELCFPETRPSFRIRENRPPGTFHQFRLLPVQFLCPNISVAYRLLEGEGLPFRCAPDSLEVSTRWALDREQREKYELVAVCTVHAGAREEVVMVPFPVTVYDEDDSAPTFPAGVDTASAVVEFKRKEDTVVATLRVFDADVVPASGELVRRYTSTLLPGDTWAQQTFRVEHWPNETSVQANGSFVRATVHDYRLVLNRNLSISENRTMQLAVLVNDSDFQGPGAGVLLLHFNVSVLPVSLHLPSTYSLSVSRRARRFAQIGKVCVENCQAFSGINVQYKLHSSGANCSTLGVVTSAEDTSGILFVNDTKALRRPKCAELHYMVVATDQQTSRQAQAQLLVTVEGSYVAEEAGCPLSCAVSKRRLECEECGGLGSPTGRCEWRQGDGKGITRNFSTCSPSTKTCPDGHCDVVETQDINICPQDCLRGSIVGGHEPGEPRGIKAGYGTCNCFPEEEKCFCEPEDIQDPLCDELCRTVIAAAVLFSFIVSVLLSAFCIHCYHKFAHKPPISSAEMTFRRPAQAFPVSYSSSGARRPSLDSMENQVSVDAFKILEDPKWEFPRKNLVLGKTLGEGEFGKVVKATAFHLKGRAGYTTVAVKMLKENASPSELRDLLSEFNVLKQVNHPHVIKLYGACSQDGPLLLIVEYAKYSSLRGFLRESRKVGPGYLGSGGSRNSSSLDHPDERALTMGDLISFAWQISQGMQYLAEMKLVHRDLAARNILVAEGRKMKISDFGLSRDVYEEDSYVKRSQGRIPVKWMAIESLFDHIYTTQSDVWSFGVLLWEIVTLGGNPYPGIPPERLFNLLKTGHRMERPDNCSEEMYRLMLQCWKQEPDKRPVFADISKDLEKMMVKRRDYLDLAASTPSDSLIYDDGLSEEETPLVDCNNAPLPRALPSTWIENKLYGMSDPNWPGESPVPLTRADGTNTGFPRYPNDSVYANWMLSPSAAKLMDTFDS
# Method: Inhibition of RET G810S mutant (unknown origin) by FRET-based ZLyte kinase assay
Readout: pIC50
Quick note: pIC50 means taking -log10 of the concentration in moles per liter.

Please look up its pIC50: `COc1ccc(CN2C3CC2CN(c2ccc(-c4nc(-c5cnn(C)c5)cc5ncccc45)cn2)C3)cc1C#N`
8.24

---

Each record here notes measured pIC50.
# Experimental target: Proto-oncogene tyrosine-protein kinase receptor Ret (Homo sapiens, UniProt P07949, V804L)
# Sequence (P07949 29-1114 V804L limits assumed): as the sequence (P07949 29-1114 G810S limits assumed) above, with V776L, S782G counted along it
# Method: Inhibition of RET V804L mutant (unknown origin) by FRET-based ZLyte kinase assay
Quick note: pIC50 means taking -log10 of the concentration in moles per liter.

// worked examples, pIC50 included
>>> observed_measurement("COc1ccc(CN2C3CC2CN(c2ccc(-c4cccc5ncncc45)cn2)C3)cn1")
7.15
>>> observed_measurement("COc1ccc(CN2C3CC2CN(c2ccc(-c4nc(-c5cnn(C)c5)cc5ncccc45)cn2)C3)cc1N")
7.06
>>> observed_measurement("COc1ccc(CN2C3CC2CN(c2ccc(-c4nc(-c5cnn(C)c5)cc5ncccc45)cn2)C3)cn1")
9.40
>>> observed_measurement("Cn1cc(-c2cc3ncccc3c(-c3ccc(N4CC5CC(C4)N5C(=O)CN4CCOCC4)nc3)n2)cn1")
6.92
>>> observed_measurement("COc1ccc(CN2C3CC2CN(c2ccc(-c4nc(-c5cnn(C)c5)cc5ncccc45)cn2)C3)cc1[N+](=O)[O-]")
7.02
>>> observed_measurement("COc1ccc(CN2C3CC2CN(c2ccc(-c4nc(-c5cnn(C)c5)cc5ncccc45)cn2)C3)cc1C#N")
9.70
>>> observed_measurement("COc1ccc(CN2C3CC2CN(c2ccc(-c4nc(-c5cnn(C)c5)cc5ncccc45)cn2)C3)cc1")
8.51
>>> observed_measurement("COc1ccc(CN2C3CC2CN(c2ccc(-c4nc(Cl)cc5ncccc45)cn2)C3)cn1")
7.24
>>> observed_measurement("COc1ccc(CN2C3CC2CN(c2ccc(-c4nc(-c5cn[nH]c5)cc5ncccc45)cn2)C3)cn1")
8.96
>>> observed_measurement("COc1ccc(CN2C3CC2CN(c2ccc(-c4nc(-c5cc[nH]n5)cc5ncccc45)cn2)C3)cn1")
7.25

Please look up its pIC50: `COc1ccc(CN2C3CC2CN(c2ccc(-c4nc(-c5cnn(C)c5)cc5ncccc45)cn2)C3)cc1Cl`
8.07

---

# Method: Tmax in male Sprague-Dawley rat at 5 mg/kg, IG
# Assay type: ADME, organism-based
# Settings: in vivo, po
Readout: Tmax (h)
Give just the numeric value; h need not be written.

Please look up its Tmax: `COc1ccc(CN2C3CC2CN(c2ccc(-c4nc(-c5cnn(C)c5)cc5ncccc45)cn2)C3)cc1C#N`
1.6

---

Each record here notes measured IC50.
# Experimental target: Proto-oncogene tyrosine-protein kinase receptor Ret (Homo sapiens, UniProt P07949, M918T)
# Sequence (P07949 29-1114 M918T limits assumed): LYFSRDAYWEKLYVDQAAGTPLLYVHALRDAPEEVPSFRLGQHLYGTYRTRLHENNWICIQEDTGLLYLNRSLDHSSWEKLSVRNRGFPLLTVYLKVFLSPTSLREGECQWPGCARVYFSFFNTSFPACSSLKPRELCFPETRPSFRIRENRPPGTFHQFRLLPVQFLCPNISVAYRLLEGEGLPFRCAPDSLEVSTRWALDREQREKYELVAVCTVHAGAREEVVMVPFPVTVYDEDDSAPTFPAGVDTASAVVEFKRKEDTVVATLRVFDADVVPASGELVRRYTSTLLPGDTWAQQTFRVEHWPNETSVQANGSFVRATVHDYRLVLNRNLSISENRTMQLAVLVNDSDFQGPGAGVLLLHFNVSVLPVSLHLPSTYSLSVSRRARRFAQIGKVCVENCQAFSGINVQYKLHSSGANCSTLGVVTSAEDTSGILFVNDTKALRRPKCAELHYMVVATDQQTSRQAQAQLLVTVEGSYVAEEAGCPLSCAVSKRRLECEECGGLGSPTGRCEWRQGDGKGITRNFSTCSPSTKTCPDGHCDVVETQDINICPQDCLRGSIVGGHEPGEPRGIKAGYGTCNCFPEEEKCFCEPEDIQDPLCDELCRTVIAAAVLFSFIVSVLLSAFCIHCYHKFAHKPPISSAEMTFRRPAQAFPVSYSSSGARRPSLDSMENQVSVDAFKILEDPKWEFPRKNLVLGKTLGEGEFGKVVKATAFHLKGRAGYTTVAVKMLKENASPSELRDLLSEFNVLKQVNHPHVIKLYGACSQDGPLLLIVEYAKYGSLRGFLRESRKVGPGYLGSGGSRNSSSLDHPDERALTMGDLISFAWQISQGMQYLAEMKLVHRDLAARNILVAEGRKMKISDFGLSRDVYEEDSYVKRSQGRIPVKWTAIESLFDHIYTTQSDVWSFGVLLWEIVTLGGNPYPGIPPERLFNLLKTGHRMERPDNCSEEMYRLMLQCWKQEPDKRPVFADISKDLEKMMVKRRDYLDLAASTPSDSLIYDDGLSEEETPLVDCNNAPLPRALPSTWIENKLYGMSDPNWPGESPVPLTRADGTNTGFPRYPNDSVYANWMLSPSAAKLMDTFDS
# Method: Inhibition of RET M918T mutant (unknown origin) by FRET-based ZLyte kinase assay
Give just the numeric value; nM need not be written.

// worked examples, IC50 included
>>> observed_measurement("COc1ccc(CN2C3CC2CN(c2ccc(-c4nc(-c5cnn(C)c5)cc5ncccc45)cn2)C3)cc1Cl")
11.3
>>> observed_measurement("Cn1cc(-c2cc3ncccc3c(-c3ccc(N4CC5CC(C4)N5Cc4ccc(F)nc4)nc3)n2)cn1")
9.3
>>> observed_measurement("COc1ccc(CN2C3CC2CN(c2ccc(-c4nc(-c5cn[nH]c5)cc5ncccc45)cn2)C3)cn1")
6.5
>>> observed_measurement("Cn1cc(-c2cc3ncccc3c(-c3ccc(N4CC5CC(C4)N5C(=O)Cc4cc(F)cc(F)c4)nc3)n2)cn1")
6.7
>>> observed_measurement("Cn1cc(-c2cc3ncccc3c(-c3ccc(N4CC5CC(C4)N5C(=O)Cc4cccc(Cl)c4)nc3)n2)cn1")
5.9
>>> observed_measurement("COc1ccc(CN2C3CC2CN(c2ccc(-c4nc(-c5cnn(C)c5)cc5ncccc45)cn2)C3)cc1C(F)(F)F")
14.7

Please look up its IC50: `Cc1ccc(CN2C3CC2CN(c2ccc(-c4nc(-c5cnn(C)c5)cc5ncccc45)cn2)C3)cn1`
16.2

---

# Experimental target: Proto-oncogene tyrosine-protein kinase receptor Ret (Homo sapiens, UniProt P07949, V804L)
# Method: Inhibition of RET V804L mutant (unknown origin) by FRET-based ZLyte kinase assay
Each record here notes measured pIC50.
Quick note: pIC50 means taking -log10 of the concentration in moles per liter.

// worked examples, pIC50 included
>>> observed_measurement("COc1ccc(CN2C3CC2CN(c2ccc(-c4nc(-c5cnn(C)c5)cc5ncccc45)cn2)C3)cc1C(F)(F)F")
7.65
>>> observed_measurement("COc1ccc(CN2C3CC2CN(c2ccc(-c4nc(-c5ccncc5)cc5ncccc45)cn2)C3)cn1")
6.48
>>> observed_measurement("COc1ccc(CN2C3CC2CN(c2ccc(-c4cccc5ncccc45)cn2)C3)cn1")
6.54
>>> observed_measurement("COc1ccc(CN2C3CC2CN(c2ccc(-c4cccc5cnccc45)cn2)C3)cn1")
6.10
>>> observed_measurement("Cn1cc(-c2cc3ncccc3c(-c3ccc(N4CC5CC(C4)N5Cc4cccnc4)nc3)n2)cn1")
7.39

Now consider a different compound.
Please look up its pIC50: `Cn1cc(-c2cc3ncccc3c(-c3ccc(N4CC5CC(C4)N5Cc4ccc(F)nc4)nc3)n2)cn1`
8.25
